Here we gather Ki data for 5-hydroxytryptamine receptor 2C (Homo sapiens) reported by several publications.
# measured target: 5-hydroxytryptamine receptor 2C (Homo sapiens)
# Sequence (P28335 whole entry): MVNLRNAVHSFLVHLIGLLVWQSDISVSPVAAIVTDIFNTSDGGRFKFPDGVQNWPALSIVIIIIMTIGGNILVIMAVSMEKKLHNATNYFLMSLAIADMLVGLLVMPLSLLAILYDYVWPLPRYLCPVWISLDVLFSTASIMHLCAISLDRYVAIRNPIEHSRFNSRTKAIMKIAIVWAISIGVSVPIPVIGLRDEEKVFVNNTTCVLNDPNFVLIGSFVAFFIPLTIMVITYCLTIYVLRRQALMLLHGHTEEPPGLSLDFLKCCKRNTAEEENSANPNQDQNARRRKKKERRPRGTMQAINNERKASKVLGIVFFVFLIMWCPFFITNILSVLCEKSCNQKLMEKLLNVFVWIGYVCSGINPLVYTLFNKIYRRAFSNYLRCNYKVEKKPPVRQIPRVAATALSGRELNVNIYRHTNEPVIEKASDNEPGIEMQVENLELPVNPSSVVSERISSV

Inquiry: Sample COC(=O)c1coc2c1C(=O)CC(CN1CCC(C(=O)c3ccc(F)cc3)CC1)C2 (stereo unspecified) — what was its Ki?
Reply text: > 10 µM

Inquiry: Bench note: what Ki did Nc1ccc(S(=O)(=O)c2cc(Br)nc(N3CCCC3)c2)cc1 show?
Reply text: > 10 µM

Inquiry: Please give the measured Ki for this compound: Cn1cc(Br)c(C(=O)N2CCN(CC(O)c3ccc(F)cc3)CC2)n1 (stereo unspecified)
Reply text: > 10 µM

Inquiry: What value of Ki has been reported for the following compound? COc1cc2c(cc1OC)C1=NO[C@@H](CN3CCN(Cc4ccc5ccccc5c4)CC3)[C@@H]1CO2
Reply text: > 1 µM

Inquiry: Give the measured Ki of COc1ccc(N2CCN(Cc3c[nH]c4ncccc34)CC2)cc1 .
Reply text: > 10 µM

Inquiry: Param item = C[C@H](Nc1nc(N)nc(NCCOc2ccc(F)cc2)n1)c1ccc(F)cc1 ; retrieve measured Ki.
Reply text: > 1 µM
